# Test system: TK-10
# Procedure Details: NCI tumour cell line growth inhibition, 48 h
The source made the active and inactive calls. Rule as the data show it: active = GI50 up to about 1.1 µM and inactive = higher.
Please state which outcome applies, choosing from label 1 = active, label 0 = inactive

Query: What did the test return for CC(=O)c1cccc(NC(=O)C(=O)C(C(=O)c2ccccc2F)C2OC(=O)c3ccccc32)c1 (stereo not drawn) ?
Result: label 0

Query: Another: COc1cc(CNNC(N)=S)cc(OC)c1OC
Result: label 0

Query: Then O=S(=O)(F)Cc1ccccc1 [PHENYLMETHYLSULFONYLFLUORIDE] ?
Result: label 0

Query: Param item: COC(=O)C1CCC(=O)N1C(c1ccc2c(c1)OCO2)c1cc(OC)c(OC)c(OC)c1 (stereo not drawn)
Result: label 0

Query: Now this one: O=S(=O)(N/N=C/c1c(Cl)cccc1Cl)c1ccccc1
Result: label 0

Query: Also check O=c1[nH]cc(/C=N\Nc2ccccc2)c(=O)[nH]1
Result: label 0

Query: # iterate: O=P1(C(O)/C=C/c2ccccc2)N(Cc2ccccc2)[C@@H]2CCCC[C@H]2N1Cc1ccccc1 (stereo partly drawn)
Result: label 0

Query: Can you handle C[C@]12CC[C@H](O[C@@H]3O[C@H](CO[C@@H]4O[C@H](CO)[C@@H](O)[C@H](O)[C@H]4O)[C@@H](O)[C@H](O)[C@H]3O)C[C@@H]1CC[C@@H]1[C@@H]2CC[C@]2(C)[C@@H](C3=CC(=O)OC3)CC[C@]12O next?
Result: label 0

Query: Next molecule: C=CC(=O)N1C/C(=C\c2ccc([N+](=O)[O-])cc2)C(=O)/C(=C/c2ccc([N+](=O)[O-])cc2)C1
Result: label 1

Query: Please answer likewise for Cc1c2cc[n+](C)cc2c(C)c2c1[nH]c1ccc(Cl)cc12
Result: label 0

Query: // same read-out, input: Cc1cc(S(=O)(=O)Nc2nncn2-c2ccc(Cl)cc2)c(S)cc1Cl
Result: label 0

Query: Likewise for CC(=O)c1nccc2c1c(C)nc1ccccc12 ?
Result: label 0

Query: Then this molecule: CSC1NC(c2ccc(Cl)cc2)=C(C#N)C(=O)N1C1OCC(OC(C)=O)C(OC(C)=O)C1OC(C)=O (stereo not drawn)
Result: label 0

Query: Same read-out for CCCCCCCCCCCCCCCCCCNC(=S)N/C=C1/C(=O)C=C(C)OC1=O ?
Result: label 0

Query: Entry to check: Nc1nc(N)nc(CCCc2nc(N)nc(N)n2)n1
Result: label 0

Query: // query: Nc1c(C(=O)c2ccc(Cl)cc2)[nH]c(Nc2ccc(Cl)cc2)c1C(=S)Nc1ccccc1
Result: label 0

Query: Note, next up: N#Cc1c(N)nc2c(C#N)c(N)cc3c2c1Oc1ccccc1-3
Result: label 0

Query: Thanks! And CN(CCN(C)CCN(C)C(=O)Cc1ccc(Cl)c(Cl)c1)CCN1CCCC1 ?
Result: label 0

---

Notes on GI50 obtained with HCT-15.

Query: Fill in: GI50 of CCOC(=O)c1c(-c2ccccc2)c(C(OC(c2ccccc2)c2c(-c3ccccc3)c(C(=O)OCC)n3ccccc23)c2ccccc2)c2ccccn12 (stereo unspecified) is ___
Result: > 100 µM

Query: Can you check CCCSc1nc(COC(=O)NC)c(COC(=O)NC)n1C next?
Result: > 83 µM

Query: Same again, this time with CC(C)(/N=N/C(C)(C)C(=O)NCCO)C(=O)NCCO
Result: > 100 µM

Query: Then Nc1nc(=O)n(C2CC(O)C(O)C(CO)O2)cc1F (stereo unspecified) ?
Result: > 100 µM

Query: # repeat for Cn1c(S)nc2c(Cl)cc(Cl)cc2c1=O
Result: > 100 µM

Query: Could you do the same for CCOC(=O)c1cc(-c2ccc(-c3cc(C(=O)OCC)c(C#N)c(N)c3C#N)cc2)c(C#N)c(N)c1C#N , please?
Result: > 100 µM

---

So I've got a bunch of compounds here, and I need their GI50 values.
# Tested on: SF-295
# Procedure Details: NCI tumour cell line growth inhibition, 48 h
The source made the active and inactive calls. Rule as the data show it: active = GI50 up to about 1.1 µM and inactive = higher.

Query: Report GI50 for N=C(c1ccc2ccccc2c1)c1ccccc1Cc1ccccc1 please.
Result: 32.2 µM (inactive)

Query: Then what about the compound CN=S(=O)(C[C@]1(O)CC2OC1C1OC(C)(C)OC21)c1ccccc1 (some centres not stated) ?
Result: > 100 µM (inactive)

Query: And then CCOC(=O)C1=C(c2ccccc2)N(C)c2ccccc2S1 , what is it?
Result: 35.8 µM (inactive)

Query: Subsequent entry: O=C1CCCc2ccc3c(c21)CC1(Cc2ccccc2C1)C3
Result: 24.2 µM (inactive)

Query: Can you handle Cc1ccc(Nc2nnc(-c3ccc4c(c3)OCO4)o2)c(C)c1 next?
Result: > 100 µM (inactive)

Query: Now consider O=C1OCc2c1cc1ccc(O)c(OC3OC(CO)C(O)C(O)C3O)c1c2-c1ccc2c(c1)OCO2 (configuration not stated) and answer again.
Result: > 100 µM (inactive)

Query: Now consider CC(Br)C(=O)NC(CO)C(=O)O (configuration not stated) .
Result: > 100 µM (inactive)

---

Record form. Attribute: GI50. Fill in for each entry.
# System: RXF 393
# Procedure Details: NCI tumour cell line growth inhibition, 48 h
Active and inactive are the calls of the source. Cut-off read from the data, not from the text of the source: active = GI50 up to about 1.1 µM and inactive = higher.

Query: Reported GI50, molecule COC(=O)[C@]12CC[C@H]3CN(C(=O)OCc4ccccc4)[C@H]([C@H]31)[C@H](c1ccco1)N2 : ____
Result: > 100 µM (inactive)

Query: Likewise for COc1c2nc(CCl)n(C)c(=O)c2c(OC)c2c(=O)n(C)c(CCl)nc12 ?
Result: 2.07 µM (inactive)

Query: // same read-out, input: Cc1ccc(Nc2nnc(-c3ccc4c(c3)OCO4)o2)c(C)c1
Result: > 100 µM (inactive)

Query: Let us now turn to CCc1nc(N)nc(N)c1-c1ccc(Cl)c(Cl)c1
Result: 59.3 µM (inactive)

Query: What do we get for O=C1c2ccccc2C(=O)c2cc(/N=N/c3c(O)ccc4ccccc34)ccc21 ?
Result: > 100 µM (inactive)

Query: Next up: CC1=Nc2ccccc2C12C(c1ccccc1)C(c1ccccc1)C(=O)N1c3ccccc3CC12 (stereo unspecified)
Result: > 100 µM (inactive)

---

# Test system: MOLT-4
# Procedure Details: NCI tumour cell line growth inhibition, 48 h
The source made the active and inactive calls. Cut-off read from the data, not from the text of the source: active = GI50 up to about 1.1 µM and inactive = higher.
Would you mind telling me the reported GI50 of each entry?

Query: Query GI50 on MOLT-4 for Cc1ccc(-n2cnc3c(N)nc(N)nc32)cc1
Result: 44.7 µM (inactive)

Query: // next record CCOC(=O)CCC(NC(=O)c1ccc(/N=C/c2nc3ccccc3nc2-c2ccccc2)cc1)C(=O)OCC (stereo unspecified)
Result: > 100 µM (inactive)

Query: Please answer likewise for CNNC(=NS(=O)(=O)c1cc(C#N)c(NNC)cc1S)NNC
Result: > 10 µM (inactive)

Query: Also O=S1(=O)CCN(c2ccccc2CC(c2c[nH]c3ccccc23)c2c[nH]c3ccccc23)CC1 ?
Result: 2.33 µM (inactive)

Query: Field entry: COc1cc(/C=C2/C(=O)N(C(=O)OC(C)C)C(Cc3cc(OC)c(OC)c(C)c3OC)C(=O)N2Cc2ccccc2)c(OC)c(C)c1OC (stereo unspecified)
Result: 3.33 µM (inactive)

Query: Ok, now N#CC(O)CCOCc1ccccc1 (stereo unspecified)
Result: 3.39 µM (inactive)

Query: Field entry: COc1ccc(C(=O)O)c(Cc2cccc3ccccc23)c1
Result: > 100 µM (inactive)

Query: For CC/C=C\C/C=C\C/C=C\CCCCCCCC(=O)OCC(O)CO (stereo unspecified) then?
Result: > 46.2 µM (inactive)

Query: // repeat for O=c1c2ccccc2[nH]c(=S)n1-c1ccc(/N=N/c2cccc3cc(O)ccc23)cc1 and report
Result: > 100 µM (inactive)

Query: Follow-up item: Nc1nc(=O)n(C2CC(O)C(O)C(CO)O2)cc1F (stereo unspecified)
Result: > 100 µM (inactive)

Query: Same question for CC(C)(C)c1cc2c(O)c(c1)Cc1cc(C(C#N)(Cc3ccc4ccccc4c3)Cc3ccc4ccccc4c3)cc(c1O)Cc1cc(C(C)(C)C)cc(c1O)Cc1cc(C(C#N)(Cc3ccc4ccccc4c3)Cc3ccc4ccccc4c3)cc(c1O)C2 please.
Result: > 100 µM (inactive)

---

Would you kindly list GI50 for each of these molecules?
# Tested on: SK-OV-3
# Procedure Details: NCI tumour cell line growth inhibition, 48 h
The source made the active and inactive calls. Rule as the data show it: active = GI50 up to about 1.1 µM and inactive = higher.

Query: Return GI50 measured with SK-OV-3 given this molecule: CC1=C2c3c(C)ccc4ccc(C)c(c34)C2(O)C(C)C1=O (stereo unspecified)
Result: 52.7 µM (inactive)

Query: Lookup Nc1nc(Cl)c(N)c(NCC2(CO)CCC(OCc3ccccc3)C2)n1 (stereo unspecified)
Result: > 100 µM (inactive)

Query: Moving on to O=C(O)C(Br)C(Br)C(=O)O (stereo unspecified)
Result: > 100 µM (inactive)

Query: Param item: O=C1O/C(=C(/Cl)c2cccc3ccccc23)c2ccccc21
Result: > 100 µM (inactive)

Query: Now give it for CN(C)C(=S)SCC(N)=O too.
Result: > 100 µM (inactive)

Query: Now the molecule O=S1(=O)CCN(c2ccccc2CC(c2c[nH]c3ccccc23)c2c[nH]c3ccccc23)CC1
Result: 8.67 µM (inactive)

Query: Do the same for CONC(C)=O please
Result: > 100 µM (inactive)

Query: Now consider CCOC(=O)/C(=C\c1ccc(F)cc1)C(C)=O .
Result: 35 µM (inactive)

Query: What do you get for Clc1ccc(C2=C(c3ccccc3)C(c3ccc(Cl)cc3)N3C(=N[C@H]4CCCC[C@@H]43)N2)cc1 (stereo partly specified) ?
Result: 17.1 µM (inactive)

Query: Try CCOC(=O)c1ccc(C(=O)C(C(C)=O)C(=O)OC(C)(C)C)[nH]1 (stereo unspecified) next.
Result: > 100 µM (inactive)

Query: Please do the same for O=C(O)C(Cc1ccccc1)Cc1ccccc1 as well.
Result: > 100 µM (inactive)

Query: And for CC1(C)OC(=O)[C@@](C)([C@H](O)c2ccccc2)O1 ?
Result: > 100 µM (inactive)

Query: Also need CCOC(=O)C1=C(c2ccccc2)N(C)c2ccccc2S1 , thanks.
Result: 92.5 µM (inactive)

Query: Cool, now CC1(C)OC[C@@H](O)[C@H](Br)CO1
Result: > 100 µM (inactive)

Query: And the next one, O=C1OC(c2ccc(O)cc2)(c2ccc(O)cc2)c2ccc(Cl)c3cccc1c23.O=C1OC(c2ccc(O)cc2)(c2ccc(O)cc2)c2cccc3c(Cl)ccc1c23 ?
Result: 19.2 µM (inactive)

Query: Would you mind doing S=C1/C(=N/c2ccccc2)N(c2ccccc2)/C(=N\c2ccccn2)N1c1ccccc1 as well?
Result: 19.9 µM (inactive)

Query: Query Cc1ccc(Nc2nnc(-c3ccc4c(c3)OCO4)o2)c(C)c1 next
Result: > 100 µM (inactive)

Query: Same again, this time with O=S(=O)(F)Cc1ccccc1 [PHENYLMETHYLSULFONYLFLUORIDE]
Result: > 100 µM (inactive)

Query: Query Cn1c(=O)c2c(nc(C(=N)SCC(=O)O)n2C)n(C)c1=O next
Result: 61.8 µM (inactive)

Query: Same read-out for C#CCN(Cc1ccc2nc(-c3ccccc3)c(Cl)nc2c1)c1ccc(Cl)c(Cl)c1 ?
Result: > 100 µM (inactive)

Query: What do you get for C=C(Cl)C(=C)CCC(Cl)C(C)C (stereo unspecified) ?
Result: > 100 µM (inactive)
